tested on: NCI-H838; experiment: relative viability (nuclei count vs DMSO), 5 days (fraction); higher = more cells survive; settings: first compound 0.01581 µM
Measured relative viability of individual entries
recorded_endpoint: relative viability

Nc1ccn([C@@H]2O[C@H](CO)[C@@H](O)[C@@H]2O)c(=O)n1 [Cytarabine] + CC(=O)c1c(C)c2cnc(Nc3ccc(N4CCNCC4)cn3)nc2n(C2CCCC2)c1=O [Palbociclib] (partner 0.5 µM); 0.244
Nc1ccn([C@@H]2O[C@H](CO)[C@@H](O)[C@@H]2O)c(=O)n1 [Cytarabine] + NC(=O)Nc1cc(-c2cccc(F)c2)sc1C(=O)N[C@H]1CCCNC1 [AZD7762] (partner 0.2 µM); 0.699
Nc1ccn([C@@H]2O[C@H](CO)[C@@H](O)[C@@H]2O)c(=O)n1 [Cytarabine] + Cc1nc(Nc2ncc(C(=O)Nc3c(C)cccc3Cl)s2)cc(N2CCN(CCO)CC2)n1 [Dasatinib] (partner 0.075 µM); 0.274
COc1cc2nccc(Oc3ccc(NC(=O)Nc4cc(C)on4)c(Cl)c3)c2cc1OC [Tivozanib] + CC(C)C[C@H](NC(=O)[C@H](Cc1ccccc1)NC(=O)c1cnccn1)B(O)O [Bortezomib] (partner 0.002 µM); 0.877
COc1cc2nccc(Oc3ccc(NC(=O)Nc4cc(C)on4)c(Cl)c3)c2cc1OC [Tivozanib] + Cc1nc(Nc2ncc(C(=O)Nc3c(C)cccc3Cl)s2)cc(N2CCN(CCO)CC2)n1 [Dasatinib] (partner 0.075 µM); 0.31

---

tested on: NCI-H1734; experiment: relative viability (nuclei count vs DMSO), 5 days (fraction); higher = more cells survive; conditions: first compound 0.253 µM
recorded_endpoint: relative viability

Cc1cnc(-c2cnc(NCCNc3ccc(C#N)cn3)nc2-c2ccc(Cl)cc2Cl)[nH]1 + CS(=O)(=O)CCNCc1ccc(-c2ccc3ncnc(Nc4ccc(OCc5cccc(F)c5)c(Cl)c4)c3c2)o1 [Lapatinib] (partner 2 µM); 0.901
O=c1[nH]c2ccccc2n1C1CCN(CCCC(c2ccc(F)cc2)c2ccc(F)cc2)CC1 [Pimozide] + Cc1cc(Nc2cc(N3CCN(C)CC3)nc(Sc3ccc(NC(=O)C4CC4)cc3)n2)n[nH]1 [Tozasertib] (partner 0.1 µM); 0.289
Cc1cnc(-c2cnc(NCCNc3ccc(C#N)cn3)nc2-c2ccc(Cl)cc2Cl)[nH]1 + Cc1cc(Nc2cc(N3CCN(C)CC3)nc(Sc3ccc(NC(=O)C4CC4)cc3)n2)n[nH]1 [Tozasertib] (partner 0.1 µM); 0.253
Cc1cnc(-c2cnc(NCCNc3ccc(C#N)cn3)nc2-c2ccc(Cl)cc2Cl)[nH]1 + C[C@@H](Oc1cc(-c2cnn(C3CCNCC3)c2)cnc1N)c1c(Cl)ccc(F)c1Cl [Crizotinib] (partner 1 µM); 0.636

---

test system: NCI-H2126; assay: relative viability (nuclei count vs DMSO), 5 days (fraction); higher = more cells survive; settings: first compound 0.006325 µM
recorded_endpoint: relative viability

CC(=O)O[C@@]12CO[C@@H]1C[C@H](O)[C@@]1(C)C(=O)[C@H](O)C3=C(C)[C@@H](OC(=O)[C@H](O)[C@@H](NC(=O)OC(C)(C)C)c4ccccc4)C[C@@](O)([C@@H](OC(=O)c4ccccc4)[C@H]21)C3(C)C [Docetaxel] + O=C(CCCCCCC(=O)Nc1ccccc1)NO [Vorinostat] (partner 1 µM); 0.337
CC(=O)O[C@@]12CO[C@@H]1C[C@H](O)[C@@]1(C)C(=O)[C@H](O)C3=C(C)[C@@H](OC(=O)[C@H](O)[C@@H](NC(=O)OC(C)(C)C)c4ccccc4)C[C@@](O)([C@@H](OC(=O)c4ccccc4)[C@H]21)C3(C)C [Docetaxel] + COc1cc2c(Oc3ccc(NC(=O)C4(C(=O)Nc5ccc(F)cc5)CC4)cc3F)ccnc2cc1OCCCN1CCOCC1 [Foretinib] (partner 0.25 µM); 0.456

---

system: NCI-H1944; assay: relative viability (nuclei count vs DMSO), 5 days (fraction); higher = more cells survive; settings: first compound 0.05 µM
Label Condition met when relative viability is strictly below 0.3; at or above that, label Condition not met.

COc1cc2nccc(Oc3ccc(NC(=O)Nc4cc(C)on4)c(Cl)c3)c2cc1OC [Tivozanib] + CCNC(=O)c1noc(-c2cc(C(C)C)c(O)cc2O)c1-c1ccc(CN2CCOCC2)cc1 [Luminespib] (partner 0.01 µM); Condition not met
COc1cc2nccc(Oc3ccc(NC(=O)Nc4cc(C)on4)c(Cl)c3)c2cc1OC [Tivozanib] + Nc1nc2[nH]cc(CCc3ccc(C(=O)N[C@@H](CCC(=O)O)C(=O)O)cc3)c2c(=O)[nH]1 [Pemetrexed] (partner 0.2 µM); Condition not met
Nc1ccn([C@@H]2O[C@H](CO)[C@@H](O)[C@@H]2O)c(=O)n1 [Cytarabine] + Cc1cc(Nc2cc(N3CCN(C)CC3)nc(Sc3ccc(NC(=O)C4CC4)cc3)n2)n[nH]1 [Tozasertib] (partner 0.1 µM); Condition met
COc1cc2nccc(Oc3ccc(NC(=O)Nc4cc(C)on4)c(Cl)c3)c2cc1OC [Tivozanib] + CC(=O)c1c(C)c2cnc(Nc3ccc(N4CCNCC4)cn3)nc2n(C2CCCC2)c1=O [Palbociclib] (partner 0.5 µM); Condition not met
Nc1ccn([C@@H]2O[C@H](CO)[C@@H](O)[C@@H]2O)c(=O)n1 [Cytarabine] + N=C(N)NC(=N)NCCc1ccccc1 [Phenformin] (partner 250 µM); Condition met
COc1cc2nccc(Oc3ccc(NC(=O)Nc4cc(C)on4)c(Cl)c3)c2cc1OC [Tivozanib] + CC(=O)Nc1cccc(-n2c(=O)n(C3CC3)c(=O)c3c(Nc4ccc(I)cc4F)n(C)c(=O)c(C)c32)c1 [Trametinib] (partner 0.02 µM); Condition not met
Nc1ccn([C@@H]2O[C@H](CO)[C@@H](O)[C@@H]2O)c(=O)n1 [Cytarabine] + CS(=O)(=O)N1CCN(Cc2cc3nc(-c4cccc5[nH]ncc45)nc(N4CCOCC4)c3s2)CC1 [Pictilisib] (partner 1 µM); Condition met
Nc1ccn([C@@H]2O[C@H](CO)[C@@H](O)[C@@H]2O)c(=O)n1 [Cytarabine] + Cc1nc(Nc2ncc(C(=O)Nc3c(C)cccc3Cl)s2)cc(N2CCN(CCO)CC2)n1 [Dasatinib] (partner 0.075 µM); Condition met
Nc1ccn([C@@H]2O[C@H](CO)[C@@H](O)[C@@H]2O)c(=O)n1 [Cytarabine] + COc1cc2c(Oc3ccc(NC(=O)C4(C(=O)Nc5ccc(F)cc5)CC4)cc3F)ccnc2cc1OCCCN1CCOCC1 [Foretinib] (partner 0.25 µM); Condition not met

---

tested on: HCC-366; assay: relative viability (nuclei count vs DMSO), 5 days (fraction); higher = more cells survive; settings: first compound 0.005 µM
Measured relative viability of individual entries
recorded_endpoint: relative viability

Nc1ccn([C@@H]2O[C@H](CO)[C@@H](O)[C@@H]2O)c(=O)n1 [Cytarabine] + CC1(C)CCC(c2ccc(Cl)cc2)=C(CN2CCN(c3ccc(C(=O)NS(=O)(=O)c4ccc(N[C@H](CCN5CCOCC5)CSc5ccccc5)c(S(=O)(=O)C(F)(F)F)c4)cc3)CC2)C1 [Navitoclax] (partner 0.5 µM); 0.889
Nc1ccn([C@@H]2O[C@H](CO)[C@@H](O)[C@@H]2O)c(=O)n1 [Cytarabine] + NC(=O)Nc1cc(-c2cccc(F)c2)sc1C(=O)N[C@H]1CCCNC1 [AZD7762] (partner 0.2 µM); 0.139
Nc1ccn([C@@H]2O[C@H](CO)[C@@H](O)[C@@H]2O)c(=O)n1 [Cytarabine] + Cc1nc(Nc2ncc(C(=O)Nc3c(C)cccc3Cl)s2)cc(N2CCN(CCO)CC2)n1 [Dasatinib] (partner 0.075 µM); 0.573
COc1cc2nccc(Oc3ccc(NC(=O)Nc4cc(C)on4)c(Cl)c3)c2cc1OC [Tivozanib] + Cc1cc(Nc2cc(N3CCN(C)CC3)nc(Sc3ccc(NC(=O)C4CC4)cc3)n2)n[nH]1 [Tozasertib] (partner 0.1 µM); 0.094
COc1cc2nccc(Oc3ccc(NC(=O)Nc4cc(C)on4)c(Cl)c3)c2cc1OC [Tivozanib] + CC(C)C[C@H](NC(=O)[C@H](Cc1ccccc1)NC(=O)c1cnccn1)B(O)O [Bortezomib] (partner 0.002 µM); 1.01
COc1cc2nccc(Oc3ccc(NC(=O)Nc4cc(C)on4)c(Cl)c3)c2cc1OC [Tivozanib] + Nc1ncn([C@H]2C[C@H](O)[C@@H](CO)O2)c(=O)n1 [Decitabine] (partner 2 µM); 0.334
Nc1ccn([C@@H]2O[C@H](CO)[C@@H](O)[C@@H]2O)c(=O)n1 [Cytarabine] + C[C@]1(O)C[C@@H](c2nc(-c3ccc4ccc(-c5ccccc5)nc4c3)c3c(N)nccn32)C1 [Linsitinib] (partner 1 µM); 0.725
COc1cc2nccc(Oc3ccc(NC(=O)Nc4cc(C)on4)c(Cl)c3)c2cc1OC [Tivozanib] + Nc1nc2[nH]cc(CCc3ccc(C(=O)N[C@@H](CCC(=O)O)C(=O)O)cc3)c2c(=O)[nH]1 [Pemetrexed] (partner 0.2 µM); 0.16
COc1cc2nccc(Oc3ccc(NC(=O)Nc4cc(C)on4)c(Cl)c3)c2cc1OC [Tivozanib] + C[C@]1(O)C[C@@H](c2nc(-c3ccc4ccc(-c5ccccc5)nc4c3)c3c(N)nccn32)C1 [Linsitinib] (partner 1 µM); 0.475
